This collection of values is drawn from ChEMBL document CHEMBL1862790.

- experiment: DNDI: Cytotoxicity against L-6 rat myoblasts from skeletal muscle cells
- condition_notes: L6 rat skeletal muscle myoblast cells, IC50
assay_readout: IC50 (µM)
Your answer should be a plain number; it is taken to be in µM.

Please review the entries below; each comes with its answer.
Give the value of IC50 reported for the following: CC(C)(C)OC(=O)N1CCC(NC(c2ccc(C(F)(F)F)cc2)c2cccnc2)CC1 (stereo not given)
57.6

Give the value of IC50 reported for the following: CC(C)Oc1ccc(C(O)(c2cccnc2)c2cccc(C(N)=O)c2)cc1 (stereo not given)
69.7

Give the value of IC50 reported for the following: O=C(Nc1ccccc1)NC1CCN(C(c2ccc(Cl)cc2)c2cncnc2)CC1 (stereo not given)
54.4

Now consider the entry below.
Give the value of IC50 reported for the following: CCCCC(O)(c1ccc(OC(C)C)cc1)c1cccnc1 (stereo not given)
55.9
